Where these numbers come from: the supplement of paper PMC10307832

Form field: relative viability (one value per entry).
Tested on: A-427
Assay: relative viability (nuclei count vs DMSO), 5 days (fraction); higher = more cells survive
Conditions: first compound 0.2 µM
observation.type: relative viability

compound	experimental.target	recorded.number
CCNC(=O)c1noc(-c2cc(C(C)C)c(O)cc2O)c1-c1ccc(CN2CCOCC2)cc1 [Luminespib] + COc1cccc2cc(-c3nc([C@H]4CC[C@H](C(=O)O)CC4)n4ncnc(N)c34)[nH]c12 [OSI-027] (partner 0.5 µM)	A-427	0.121
CN1CCN(CCOc2cc(OC3CCOCC3)c3c(Nc4c(Cl)ccc5c4OCO5)ncnc3c2)CC1 [Saracatinib] + CC(=O)Nc1cccc(-n2c(=O)n(C3CC3)c(=O)c3c(Nc4ccc(I)cc4F)n(C)c(=O)c(C)c32)c1 [Trametinib] (partner 0.02 µM)	A-427	0.738
